Would you mind telling me the reported ELISA signal of each entry?
Biological target: T1, C-reactive protein (CRP) from human pleural fluid (Homo sapiens, UniProt P02741)
T1 construct: C-reactive protein, human, purified from pleural fluid; source: bought: LEE Biosolutions (from human pleural fluid)
T1 sequence (P02741 19-224): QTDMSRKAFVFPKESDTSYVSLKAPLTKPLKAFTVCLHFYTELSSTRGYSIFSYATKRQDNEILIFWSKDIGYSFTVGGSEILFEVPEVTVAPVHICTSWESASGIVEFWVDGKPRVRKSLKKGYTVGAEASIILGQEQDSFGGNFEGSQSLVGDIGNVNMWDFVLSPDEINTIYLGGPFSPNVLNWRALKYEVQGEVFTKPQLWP
Test: ELISA; CRP (0.5 ug/well) or BSA coated 2 h at 37 C; purified nanobodies 0.5 ug/well (A6, A12, B9, H7) or 0.1 ug/well (E12) in 2% BSA in PBS, 2 h at room temperature; anti-His and anti-mouse HRP, TMB
Details: both partners purified
Please respond with just the number, no unit label.

Task: Dear colleague, I am looking for the recorded ELISA signal of the following binder: anti-CRP nanobody A12 fused to 6xHis-SpyTag (VHH, pET14-derived vector) VHH: EVQLQASGGGLVQAGGSLGLSCAASTRAFSTYAMGWFRQVPGKEREFVAAISSGGSTVYADSVKGRFTISRDNAKNTVYLQMNNLRPEDTAVYYCAARQGIVVRSPTRMDYWGQGTQVTVSS
Output: 0.974

Task: Dear colleague, I am looking for the recorded ELISA signal of the following binder: anti-CRP nanobody H7 fused to 6xHis-SpyTag (VHH, pET14-derived vector) VHH: EVQLQASGGGLVQAGGSLRLSCAASGRTFSSYATGWYRQAPGKERELVAAISSGGSTYYADSVKGRFTISRDNAKNTVYLQMNSLKAEDTAVYYCAGGRRVGVLIGNEYDYWGQGTLVTVSS
Output: 0.904

Task: Dear colleague, I am looking for the recorded ELISA signal of the following binder: anti-CRP nanobody B9 fused to 6xHis-SpyTag (VHH, pET14-derived vector) VHH: EVQLQASGGGSVQAGGSLRLSCATSGIIFRNNIMTWYRQAPGKNRELVATITTGGSTNYSDSVKGRFTISRDNTKNTVYLQMSNLKPDDTGVYYCNARRNRFLTGSYGQGTQVTVSS
Output: 2.28

Task: Dear colleague, I am looking for the recorded ELISA signal of the following binder: anti-CRP nanobody A6 fused to 6xHis-SpyTag (VHH, pET14-derived vector) VHH: EVQLQASGGGLVRPGGSLRLSCAVSGGTLSNYAVGWFRRAPGNQRELVATFTSGGTTLYADSVKGRFTISRDNLKNTVYLQMNSLKPEDTAVYYCAAKPGRASSQATDYDAWGQGTQVTVSS
Output: 0.231

Task: Dear colleague, I am looking for the recorded ELISA signal of the following binder: anti-CRP nanobody E12 fused to 6xHis-SpyTag (VHH, pET14-derived vector; In the biosensor it was held by SpyCatcher attached to the gold electrode) VHH: EVQLQASGGGLVQAGGSLRLSCAASRRPSSFKVMGWYRQAPGKQRELVARITSGGSTDYADSVKGRFTISRDNAKNTVYLQMNSLEPEDTAVYYCNAYRWGRDNWGQGTQVTVSS
Output: 2.6
